The measurements presented in this section are drawn from paper PMC13083723.

# Tested on: Vero-E6 cells
# protocolNotes: cells
# Type: cell-based
# studyConditions: Chlorocebus sabaeus, Vero C1008, 24 h, read-out: PLD_Effect(%) VERO-E6
Structures can show the parent of a compound that is named as a salt.
Measured activation at 10 µM of individual entries

Here is how some compounds turned out for activation at 10 µM.
compound: CN1CCN(C(=O)CN[C@@H]2C[C@H]2c2ccc(OCc3ccccc3)cc2)CC1 [RN-1]
activation at 10 µM: 87.7%

compound: CC(C)c1cnn2c(NCc3ccccc3)cc(NCCCCCCN)nc12 [BS-181]
activation at 10 µM: 53.6%

compound: C[C@H](N)Cn1ccc2cc(F)c(Cl)cc21 [Ro-60-0175 fumarate]
activation at 10 µM: 50.7%

compound: C[C@H](Oc1cc(-c2cnn(C3CCNCC3)c2)cnc1N)c1c(Cl)ccc(F)c1Cl [(S)-crizotinib]
activation at 10 µM: 70.2%

compound: CCCOC(C(=O)OC1CCN(C)CC1)(c1ccccc1)c1ccccc1 [Propiverine Hydrochloride]
activation at 10 µM: 63.8%

compound: CNCC[C@H](Oc1cccc2ccccc12)c1cccs1 [DULOXETINE HYDROCHLORIDE]
activation at 10 µM: 92.6%

compound: COc1cccc([C@@H](C)NCCCc2ccccc2Cl)c1 [tecalcet, reference compound]
activation at 10 µM: 70.1%

compound: Nc1nc2c(c(N3CCNCC3)n1)CCC1=C2[C@@H]2CCCC[C@@H]2O1 [A-987306]
activation at 10 µM: 70.7%

Consider the additional compound presented here.
Ask: Given the compound CC(CN1c2ccccc2Sc2ccccc21)N(C)C (stereo not drawn) [PROMETHAZINE HYDROCHLORIDE] , what is its reported activation at 10 µM?
Result: 55.4%
